From: patent US12180187B2

- Tested on: ALOMY
- test: Post-emergence action against ALOMY, 320 g/ha
- Type: in vivo, Alopecurus myosuroides
- stated_conditions: dosage 320 g/ha, visual rating about 3 weeks after treatment vs untreated controls (100% = plants died)
property_name: Post-emergence action against ALOMY (%)
Field format: number, assumed %, no unit text.

Input: Please give the documented Post-emergence action against ALOMY of `CCOC(=O)COc1nn(-c2ccccc2F)c(-c2ccc(F)nc2)c1Br`
Output: 90

Input: State its Post-emergence action against ALOMY: COC(=O)C(C)Oc1nn(-c2ccccc2)c(-c2ccc(F)nc2)c1Br (stereo not drawn) [VII-014]
Output: 90

Input: Give recorded Post-emergence action against ALOMY. `COC(=O)[C@@H](C)Oc1nn(-c2cc(F)ccc2F)c(-c2cncc(F)c2)c1Br`
Output: 90

Input: Look up and report measured Post-emergence action against ALOMY for this entry: O=C(COc1nn(-c2ccccc2F)c(-c2ccc(F)nc2)c1Br)OCC1CCOC1 (stereo not drawn)
Output: 90

Input: Give the reported value of Post-emergence action against ALOMY for this record: `COC(=O)COc1nn(-c2cc(F)ccc2F)c(-c2ccc(F)nc2)c1Br`
Output: 90

Input: Fill in reported Post-emergence action against ALOMY for this entry: `CC(C)OC(=O)COc1nn(-c2ccccc2F)c(-c2ccc(F)nc2)c1Br`
Output: 100

Input: Identify measured Post-emergence action against ALOMY corresponding to `CCOC(=O)COc1nn(-c2ccccc2C)c(-c2ccc(F)nc2)c1Br`
Output: 90

Input: Give a short answer stating reported Post-emergence action against ALOMY for `COC(=O)COc1nn(-c2ccccc2F)c(-c2cncc(F)c2)c1Br` .
Output: 90

Input: Supply recorded Post-emergence action against ALOMY for `COC(=O)COc1nn(-c2ccc(F)cc2)c(-c2ccc(F)nc2)c1Br` here.
Output: 100

---

- System: ECHCG
- test: Pre-emergence action against ECHCG, 1280 g/ha
- Format: in vivo, Echinochloa crus-galli
- stated_conditions: visual scoring after about 3 weeks vs untreated controls, 100% = plants have died, 0% = like control plants
property_name: Pre-emergence action against ECHCG (%)
Field format: number, assumed %, no unit text.

Please review the following examples before continuing.
* CC(Oc1nn(-c2ccccc2F)c(-c2ccc(F)nc2)c1C(F)(F)F)C(=O)O (stereo not drawn) [VII-106] | 100
* COC(=O)CNC(=O)COc1nn(-c2ccccc2F)c(-c2ccc(F)cn2)c1Br [II-013] | 90
* CCOC(=O)COc1nn(-c2ccccc2F)c(-c2ccc(F)nc2)c1C [VII-117] | 100
* C#Cc1c(OCC(=O)OCC)nn(-c2ccccc2F)c1-c1ccc(F)nc1 [VII-088] | 100
* CONC(=O)COc1nn(-c2ccccc2F)c(-c2ccc(F)cn2)c1Br [II-003] | 100
* O=C(COc1nn(-c2ccccc2F)c(-c2ccc(F)nc2)c1Br)OCCCl [VII-108] | 100
* CCOC(=O)COc1nn(-c2ccccc2F)c(-c2ccc(F)nc2)c1C(F)(F)F [VII-010] | 100
* O=C(O)CNC(=O)COc1nn(-c2ccccc2F)c(-c2ccc(F)nc2)c1C(F)(F)F [Example X-026] | 100
* O=C(COc1nn(-c2ccccc2F)c(-c2ccc(F)nc2)c1C(F)(F)F)NS(=O)(=O)CC(F)(F)F [Example X-006] | 100
* CCOC(=O)COc1nn(-c2ccc(F)cc2F)c(-c2ccc(F)nc2)c1F [VII-027] | 90

Input: Output Pre-emergence action against ECHCG of O=C(O)COc1nn(-c2ccccc2F)c(-c2cncc(F)c2)c1Br [VII-025]
Output: 100

Input: Provide Pre-emergence action against ECHCG value for the following compound: O=C(O)COc1nn(-c2ccc(F)cc2)c(-c2ccc(F)nc2)c1C(F)(F)F [VII-125]
Output: 100

Input: For the compound N#CCCOC(=O)COc1nn(-c2ccccc2F)c(-c2ccc(F)nc2)c1Br [VII-104] , report Pre-emergence action against ECHCG.
Output: 100

Input: Given CCOC(=O)COc1nn(-c2cc(F)c(F)cc2F)c(-c2ccc(F)nc2)c1Cl [VII-009] , respond with its Pre-emergence action against ECHCG.
Output: 90

Input: Return the recorded Pre-emergence action against ECHCG value; entry: O=C(COc1nn(-c2ccccc2F)c(-c2ccnc(F)c2)c1Br)OCC1CCOC1 (stereo not drawn) [VIII-011]
Output: 100

Input: Consider the compound C=CCNC(=O)COc1nn(-c2ccccc2F)c(-c2cncnc2)c1Br [IX-001] . State its measured Pre-emergence action against ECHCG.
Output: 90

Input: For the compound COC(=O)COc1nn(-c2cc(F)ccc2F)c(-c2ccnc(F)c2)c1Br [VIII-010] , give its measured Pre-emergence action against ECHCG value.
Output: 100

Input: In one line, give reported Pre-emergence action against ECHCG of the entry CCOC(=O)COc1nn(-c2ccccc2F)c(-c2ccc(F)nc2)c1I [VII-036] .
Output: 100
